Attribute: TOP inhibition (%)
Assay Target: T1, human PD-1 ECD/Fc fusion protein (human)
T1 construct: also called huPD-1/Fc; HuPD-1 ECD/Fc
Method Notes: RBA ELISA on huPD-1/Fc; competitor biotin-huPD-L1/Fc
I only need the number, in %, no unit after it.

mAb718 (antibody, V domains shown, murine hybridoma anti-PD-1 mAb) VH: QVQLQQSGAELVRPGASVTLSCKASGYTFTDYEMHWAKQTPVHGLEWIGVIEPESGGTVYNQKFKGKAKLTADKSSRTAYMELRSLTSEDSAVYYCTREGFNSDHYFDYWGQGTTLTVSS VL: DVLMTQTPLSLPVSLGDQASISCRSSQNIVHSNGNTYLEWYLQKPGQSPKLLIYKVFNRFSGVPDRFSGSGSGTDFTLKISRVEAEDLGVYYCFQGSHVPYTFGGGTKLEIK; 96.6
mAb713 (antibody, V domains shown, murine hybridoma anti-PD-1 mAb) VH: EVKLVESGGGLVKPGGSLELSCAASGFTSSDYGMHWVRQAPEKGLEWVAYISSGSYTIYYADTVKGRFTISRDNAKNTLFLQMTSLRSEDTAMYYCAKRGGSSHVNVMDYWGQGTSVTVSS VL: DIQMTQSSSYLSVSLGGRVTITCKASDHINNWLAWYQQKPGNAPRLLISGATSLETGVPSRFSGSGSGKDYTLSITSLQTEDVATYYCQQYWSPPYTFGGGTKLEIK; 94.4

[ask] Would you kindly share the measured TOP inhibition (%) for mAb715 (antibody, V domains shown, murine hybridoma anti-PD-1 mAb) VH: EVMLVESGGGLLKPGGSLKLSCAASGFTFSSYAMSWVRQTPEKRLEWVATISGGGRDTYYPDSVKGRFTISRDNAKNTLYLQMTSLRSEDTAFYYCAGQGGTYLFASWGQGTLVTVSA VL: DIVMTQSHKFMSTSVGDSVTITCKASQDVNTAVAWYQQKPGQPPKVLIYWASTRHTGVPDRFTGSGSGTDYTLTISSVQAEDLALYYCQQHYTTPYTFGGGTKLEIK ?
[reply] 86.9
